Source of measurements: ChEMBL document CHEMBL5058577

I'd appreciate it if you could supply Total Cell Count values for the items below.
Test system: HEK-293T
Test: Multiplex assay against HEK293T
Format: toxicity, cell-based
Conditions: human, 48 h, 1 µM, compound concentration 1 uM, replicate 2
One number for each entry.

Worked cases, Total Cell Count given:
[[record]]
compound = "Cc1sc2c(c1C)C(c1ccc(Cl)cc1)=N[C@H](CC(=O)OC(C)(C)C)c1nnc(C)n1-2"
experimental_value = 685

[[record]]
compound = "COCCCN1CCC(NC(=O)c2cc(Cl)c(N)c3c2OCC3)CC1 [PRUCALOPRIDE]"
experimental_value = 832

[[record]]
compound = "CC(C)C[C@H](CO)Nc1nc(S[C@@H](C)c2ccccc2)nc2nc(N)sc12"
experimental_value = 681


Batch lookup, Total Cell Count per entry.
1. OCCCNc1cc(-c2ccnc(Nc3cccc(Cl)c3)n2)ccn1
2. O=C(NCCNCC(O)COc1ccc(O)cc1)N1CCOCC1.O=C(NCCNCC(O)COc1ccc(O)cc1)N1CCOCC1.O=C(O)/C=C/C(=O)O (centres undefined) [XAMOTEROL FUMARATE]
3. C[C@H](NC(=O)CNC(=O)c1cccc(Cl)c1)c1ccccc1
4. N[C@](CC1c2ccccc2Oc2ccccc21)(C(=O)O)[C@H]1C[C@@H]1C(=O)O
5. CN(C)C(=O)Cn1cc(-c2ccc(-c3nnc4ccccn34)cc2)cn1
6. CSc1nc(NC2CCCC2)c([N+](=O)[O-])c(NC2CCCC2)n1

1: 193; 2: 526; 3: 606; 4: 654; 5: 572; 6: 505
